System: SARS-CoV-2 B1.1 529 BA.1 (Omicron)
Test: Cytopathic effect reduction, SARS-CoV-2 B1.1 529 BA.1 (Omicron) in Vero cells
Assay type: cell-based
Conditions: Severe acute respiratory syndrome coronavirus 2, CPE reduced by 50%, read-out: Antiviral Activity (EC50) B1.1 529 BA.1 (Omicron)
For each of the molecules below, state its EC50.
Value expressed in µM; do not type the unit.

Q: Dear colleague, I am looking for the recorded EC50 of the following molecule: CCC(CC)COC(=O)[C@H](C)N[P@](=O)(OC[C@H]1O[C@@](C#N)(c2ccc3c(N)ncnn23)[C@H](O)[C@@H]1O)Oc1ccccc1 [Remdesivir, reference compound]
Ans: 0.91

Q: Record: `COc1ccc(C(OC[C@H]2O[C@@H](n3ccc4nc5cc(O)ccc5n4c3=O)C[C@@H]2O)(c2ccccc2)c2ccc(OC)cc2)cc1`
Ans: 10.6

Q: Record: `CC(C)C(=O)OC[C@H]1O[C@@H](n2ccc(NO)nc2=O)[C@H](O)[C@@H]1O`
Ans: 5.2

----------
Test: in vitro
Conditions: green monkey
For each of the compounds below, state its CC50.

Q: Dear colleague, I am looking for the recorded CC50 of the following compound: `COc1ccc(C(OC[C@H]2O[C@@H](n3ccc4nc5cc(O)ccc5n4c3=O)C[C@@H]2O)(c2ccccc2)c2ccc(OC)cc2)cc1`
Ans: > 100 µM

Q: Record: `CC(C)C(=O)OC[C@H]1O[C@@H](n2ccc(NO)nc2=O)[C@H](O)[C@@H]1O`
Ans: > 100 µM

Q: Record: CCC(CC)COC(=O)[C@H](C)N[P@](=O)(OC[C@H]1O[C@@](C#N)(c2ccc3c(N)ncnn23)[C@H](O)[C@@H]1O)Oc1ccccc1 [Remdesivir, reference compound]
Ans: ≥ 40 µM

----------
Tested on: TK- VZV strain 07-1
Assay: in vitro
Conditions: human
measurement kind: selectivity ratio

Q: Dear colleague, I am looking for the recorded selectivity ratio of the following molecule: COc1ccc(C(OC[C@H]2O[C@@H](n3ccc4nc5cc(OC)ccc5n4c3=O)C[C@@H]2O)(c2ccccc2)c2ccc(OC)cc2)cc1 [Compound 7a]
Ans: > 30

----------
Test system: HCoV 229E
Test: Cytopathic effect reduction, HCoV 229E
Type: cell-based, Human coronavirus 229E
Conditions: Human coronavirus 229E; reduction of virus-induced cytopathic effect by 50%; virus input 100 TCID50; read-out: Antiviral Activity (EC50) HCoV 229E
pEC50: −log10 of the molar value.
measurement kind: pEC50

Q: Dear colleague, I am looking for the recorded pEC50 of the following molecule: CCCCCCOc1ccc2c(c1)nc1cc[nH]c(=O)n12 [Compound 6b]
Ans: < 4.00

Q: Record: O=c1n([C@@H]2O[C@H](CO)[C@@H](O)[C@H]2O)ccc2nc3cc(O)ccc3n12 [Compound 2b]
Ans: < 4.00

Q: Record: O=c1n([C@H]2C[C@H](O)[C@@H](CO)O2)ccc2nc3cc(O)ccc3n12 [Compound 2a]
Ans: < 4.00

Q: Record: CCCCCCCCCCCCOc1ccc2c(c1)nc1cc[nH]c(=O)n12 [Compound 6e]
Ans: < 4.00

Q: Record: CCCCCCCCCCOc1ccc2c(c1)nc1cc[nH]c(=O)n12 [Compound 6d]
Ans: < 4.00

Q: Record: COc1ccc(C(OC[C@H]2O[C@@H](n3ccc4nc5cc(O)ccc5n4c3=O)C[C@@H]2O)(c2ccccc2)c2ccc(OC)cc2)cc1 [Compound 3a]
Ans: 5.07

Q: Record: CCCCOc1ccc2c(c1)nc1cc[nH]c(=O)n12 [Compound 6a]
Ans: < 4.00

Q: Record: CCCCCCCCOc1ccc2c(c1)nc1cc[nH]c(=O)n12 [Compound 6c]
Ans: < 4.00

Q: Record: COc1ccc(C(OC[C@H]2O[C@@H](n3ccc4nc5cc(O)ccc5n4c3=O)[C@H](O)[C@@H]2O)(c2ccccc2)c2ccc(OC)cc2)cc1 [Compound 3b]
Ans: 5.39

Q: Record: CCC(CC)COC(=O)[C@H](C)N[P@](=O)(OC[C@H]1O[C@@](C#N)(c2ccc3c(N)ncnn23)[C@H](O)[C@@H]1O)Oc1ccccc1 [Remdesivir, reference compound]
Ans: 7.52

----------
For each of the compounds below, state its EC50.
Tested on: SARS-CoV-2 B1.1 529 BA.1 (Omicron)
Assay: Cytopathic effect reduction, SARS-CoV-2 B1.1 529 BA.1 (Omicron) in Vero cells
Format: cell-based
Settings: Severe acute respiratory syndrome coronavirus 2, CPE reduced by 50%, read-out: Antiviral Activity (EC50) B1.1 529 BA.1 (Omicron)

Q: Dear colleague, I am looking for the recorded EC50 of the following compound: `COc1ccc2c(c1)nc1ccn([C@H]3C[C@H](O)[C@@H](CO)O3)c(=O)n12`
Ans: > 20 µM

Q: Record: `COc1ccc(C(OC[C@H]2O[C@@H](n3ccc4nc5cc(OC)ccc5n4c3=O)[C@H](O)[C@@H]2O)(c2ccccc2)c2ccc(OC)cc2)cc1`
Ans: > 20 µM

Q: Record: `COc1ccc(C(OC[C@H]2O[C@@H](n3ccc(N)nc3=O)[C@H](O)[C@@H]2O)(c2ccccc2)c2ccc(OC)cc2)cc1`
Ans: > 20 µM

----------
System: TK- VZV strain 07-1
Experiment: microbe, parasite or virus in culture
Conditions: Human alphaherpesvirus 3, HEL 299, read-out: Antiviral Activity (EC50) TK− VZV Strain 07-1
For each of the compounds below, state its EC50.

Q: Dear colleague, I am looking for the recorded EC50 of the following compound: `COc1ccc(C(OC[C@H]2O[C@@H](n3ccc4nc5cc(OC)ccc5n4c3=O)C[C@@H]2O)(c2ccccc2)c2ccc(OC)cc2)cc1`
Ans: 3.28 µM

Q: Record: `COc1ccc2c(c1)nc1ccn([C@@H]3O[C@H](CO)[C@@H](O)[C@H]3O)c(=O)n12`
Ans: > 20 µM

Q: Record: `COc1ccc(C(OC[C@H]2O[C@@H](n3ccc(N)nc3=O)C[C@@H]2O)(c2ccccc2)c2ccc(OC)cc2)cc1`
Ans: > 20 µM

Q: Record: `COc1ccc(C(OC[C@H]2O[C@@H](n3ccc4nc5cc(O)ccc5n4c3=O)[C@H](O)[C@@H]2O)(c2ccccc2)c2ccc(OC)cc2)cc1`
Ans: > 4 µM

Q: Record: `COc1ccc2c(c1)nc1ccn([C@H]3C[C@H](O)[C@@H](CO)O3)c(=O)n12`
Ans: > 20 µM

Q: Record: `COc1ccc(C(OC[C@H]2O[C@@H](n3ccc(N)nc3=O)[C@H](O)[C@@H]2O)(c2ccccc2)c2ccc(OC)cc2)cc1`
Ans: > 20 µM

----------
For each of the compounds below, state its CC50 at 3 days.
Experiment: Cytotoxicity in HEL299 cells, MTS assay
Assay type: cell-based, Human
Settings: human, HEL299 cells, cell growth reduced by 50%

Q: Dear colleague, I am looking for the recorded CC50 at 3 days of the following compound: CCCCCCCCCCOc1ccc2c(c1)nc1cc[nH]c(=O)n12 [Compound 6d]
Ans: > 100 µM

Q: Record: CCCCCCOc1ccc2c(c1)nc1cc[nH]c(=O)n12 [Compound 6b]
Ans: > 100 µM

Q: Record: CCCCOc1ccc2c(c1)nc1cc[nH]c(=O)n12 [Compound 6a]
Ans: > 100 µM

----------
For each of the compounds below, state its pEC50.
Test system: TK- VZV strain 07-1
Test: microbe, parasite or virus in culture
Conditions: Human alphaherpesvirus 3, HEL 299, read-out: Antiviral Activity (EC50) TK− VZV Strain 07-1
Scale: pEC50 equals -log10([C]), with [C] in mol/L.

Q: Dear colleague, I am looking for the recorded pEC50 of the following compound: O=c1[nH]c(=O)n([C@H]2C[C@H](O)[C@@H](CO)O2)cc1/C=C/Br [Brivudine, reference compound]
Ans: 6.85

Q: Record: `COc1ccc(C(OC[C@H]2O[C@@H](n3ccc4nc5cc(OC)ccc5n4c3=O)[C@H](O)[C@@H]2O)(c2ccccc2)c2ccc(OC)cc2)cc1`
Ans: 5.15

----------
Molecular target: SARS-CoV-2 N-protein and stem-loop vgRNA fragment condensates (Severe acute respiratory syndrome coronavirus 2, UniProt P0DTC9)
Construct: His-tag; made in house
Assay: Cell-free LLPS assay, N-protein:vgRNA condensates
Assay type: biochemical
Conditions: 20 µM compound
measurement kind: effect on LLPS / condensates (summary in words)

COc1ccc(C(OC[C@H]2O[C@@H](n3ccc4nc5cc(O)ccc5n4c3=O)[C@H](O)[C@@H]2O)(c2ccccc2)c2ccc(OC)cc2)cc1 [Compound 3b] = minor

----------
Tested on: HCoV OC43
Experiment: Cytopathic effect reduction, HCoV OC43
Format: cell-based, Human coronavirus OC43
Details: reduction of virus-induced cytopathic effect by 50%; virus input 100 TCID50; read-out: Antiviral Activity (EC50) HCoV OC43
pEC50: −log10 of the molar value.
measurement kind: pEC50

Q: Dear colleague, I am looking for the recorded pEC50 of the following compound: CCCCCCOc1ccc2c(c1)nc1ccn([C@H]3C[C@H](O)[C@@H](COC(c4ccccc4)(c4ccc(OC)cc4)c4ccc(OC)cc4)O3)c(=O)n12 [Compound 4b]
Ans: < 4.00

Q: Record: CCCCCCCCCCCCOc1ccc2c(c1)nc1ccn([C@@H]3O[C@H](COC(c4ccccc4)(c4ccc(OC)cc4)c4ccc(OC)cc4)[C@@H](O)[C@H]3O)c(=O)n12 [Compound 5e]
Ans: < 4.00

Q: Record: CCCCCCOc1ccc2c(c1)nc1ccn([C@@H]3O[C@H](COC(c4ccccc4)(c4ccc(OC)cc4)c4ccc(OC)cc4)[C@@H](O)[C@H]3O)c(=O)n12 [Compound 5b]
Ans: < 4.30

Q: Record: CCCCCCCCCCCCOc1ccc2c(c1)nc1ccn([C@H]3C[C@H](O)[C@@H](COC(c4ccccc4)(c4ccc(OC)cc4)c4ccc(OC)cc4)O3)c(=O)n12 [Compound 4e]
Ans: < 4.00

Q: Record: CCCCOc1ccc2c(c1)nc1ccn([C@H]3C[C@H](O)[C@@H](COC(c4ccccc4)(c4ccc(OC)cc4)c4ccc(OC)cc4)O3)c(=O)n12 [Compound 4a]
Ans: < 4.00
